Each recorded value in this set is attributed to patent US9000048B2.

# assay_overview: Solubility of perfluorotridecane in sevoflurane
# Format: physicochemical
# assay_conditions: organic solvent or mixture, read-out: maximum solubility of perfluorotridecane in sevoflurane
# Source text: If intercalation of perfluorotridecane between the perfluorocarbon blocks of F13M5 is the reason that phase separation occurred with sevoflurane, the same effect might be expected to happen when perfluorotridecane is used as an additive to stabilize emulsions of either FC-72 and perfluorooctyl bromide. […] The difference in emulsion stability is likely due to the different solubility of perfluorotridecane in the three fluorinated compounds. […]
value_type: solubility (mg/mL)
Just the number in mg/mL, nothing appended.

Give the measured solubility of FC(F)(F)C(F)(F)C(F)(F)C(F)(F)C(F)(F)C(F)(F)C(F)(F)C(F)(F)C(F)(F)C(F)(F)C(F)(F)C(F)(F)C(F)(F)F .
78
